Tested on: Plasmodium falciparum
Test: In vitro antimalarial activity for Plasmodium falciparum NF54 infected mice (Mus musculus)
Assay type: functional, organism-based
measuredProperty: EC50 (nM)

INSERT INTO measurements (compound, assaytarget, measuredvalue) VALUES
  ('C[C@H]1[C@H](OC(=O)CCC(=O)[O-])O[C@@H]2O[C@@]3(C)CC[C@H]4[C@H](C)CC[C@@H]1[C@@]24OO3.[Na+] [SODIUM ARESUNATE]', 'Plasmodium falciparum', 1.5),
  ('C[C@@H]1CC[C@H]2[C@@H](C)C(=O)O[C@@H]3O[C@@]4(C)CC[C@@H]1[C@]32OO4', 'Plasmodium falciparum', 8.8),
  ('C[C@H]1[C@H](OC(=O)CCC(=O)OCC(COC(=O)CCC(=O)O[C@@H]2O[C@@H]3O[C@]4(C)CC[C@H]5[C@H](C)CC[C@@H]([C@H]2C)[C@@]35OO4)C(=O)O)O[C@@H]2O[C@]3(C)CC[C@H]4[C@H](C)CC[C@@H]1[C@@]24OO3 (some centres undefined)', 'Plasmodium falciparum', 2.4),
  ('C[C@H]1[C@H](OC(=O)CCC(=O)OCC(COC(=O)CCC(=O)O[C@@H]2O[C@@H]3O[C@]4(C)CC[C@H]5[C@H](C)CC[C@@H]([C@H]2C)[C@@]35OO4)COC(=O)c2cc[n+]([O-])cc2)O[C@@H]2O[C@]3(C)CC[C@H]4[C@H](C)CC[C@@H]1[C@@]24OO3 (some centres undefined)', 'Plasmodium falciparum', 0.53);
